Test: growth of efflux-deficient E. coli DRC39 – strain DRC39, OD650, 48 h, E. coli filamentation inducers, primary screen (AID 1179);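 further: screen aims at cell division blockers that make cells filament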
Settings: E. coli DRC39 delta-acrAB growth, higher = more signal, called active from +8 up or from −8 down
ENDPOINT: z-score
Keep it simple and answer with nothing but the number.

**Query** Need z-score of CC(C)(C)OC(=O)CC[C@]1(C(=O)N2CCCCC2)N=C(c2ccc(OCCCO)cc2)O[C@H]1c1ccccc1CN=[N+]=[N-] , thanks.
**Result** 2.39

**Query** Same question, COC(=O)C(CC#Cc1ccc2c(c1)[C@]1(C(=O)N2)[C@H](C(=O)N2CCc3cc(OC)c(OC)cc3C2)[C@H]2C(=O)O[C@H](c3ccccc3)[C@H](c3ccccc3)N2[C@@H]1c1ccc(O)cc1)C(=O)OC this time
**Result** 0.356

**Query** Same question, COc1cccc(C)c1NC(=O)O[C@H]1[C@H](OC(=O)Nc2ccccc2)[C@H](OC(=O)Nc2ccccc2)[C@@H](OC)O[C@@H]1CO this time
**Result** -0.358

###

Assay: probe aInhba binding on compound microarray – biochemical, small-molecule microarray, 635/667 nm fluorescence, primary screen (AID 1148);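 further: score merges 667nm spot fluorescence with signal-to-noise for antibody binding to printed compounds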
Settings: higher = more signal
Assign composite z-score to each entry below.
Keep it simple and answer with nothing but the number.

**Query** Need composite z-score of C=CCN1C(=O)[C@@]2(O[C@@H](CCn3cc([C@H](O)c4ccccc4)nn3)[C@H]([Si](C)(C)c3ccc(OC)cc3)[C@H]2C)c2cc(NC(=O)c3ccc(OC)cc3)ccc21 , thanks.
**Result** -0.128

**Query** Same question, CCCN1C(=O)[C@@]2(Cc3ccccc3)N=C(c3ccc(OCCCO)cc3)O[C@H]2c2ccccc21 this time
**Result** 0.215

**Query** Same question, O=C(N1CCOCC1)[C@@]1(CCS(=O)(=O)c2ccccc2)COC(c2ccc(OCCCO)cc2)=N1 this time
**Result** -0.374

**Query** Same question, COC(=O)[C@@]1(Cc2ccc(F)cc2)[C@H]2c3cc(C(=O)N(C)C)n(CCSCCO)c3C[C@H]2CN1C(=O)c1ccccc1 this time
**Result** -0.0001

**Query** Same question, COCCOC(=O)N1C(=O)[C@@]2(c3cc(C#CCNC(N)=O)ccc31)[C@H](C(N)=O)[C@H]1C(=O)O[C@H](c3ccccc3)[C@H](c3ccccc3)N1[C@@H]2c1ccc(OCCO)cc1 this time
**Result** 0.0219

**Query** Same question, CN1C(=O)C2C=CC(C(O)c3cccc4ccccc34)N(NC(=O)OC(C)(C)C)C2C1=O (centres undefined) this time
**Result** 0.723

**Query** Same question, CCCCC(=C=CC[C@H](O)c1ccccc1OCCO)C[C@H](O)c1ccccn1 this time
**Result** -0.0762

**Query** Same question, CCCC=C(CCC)[C@@H](NS(=O)(=O)CC)c1ccccc1 this time
**Result** 0.279

**Query** Same question, C=CCC(OC(C)=O)[C@@H]1[C@@H](N(Cc2ccc(-c3cccc(C(F)(F)F)c3)o2)C(=O)c2cccc3ccccc23)c2cc(OCCCO)ccc2N1C(=O)c1ccc(-c2ccccc2)cc1 (some centres undefined) this time
**Result** -0.0112

**Query** Same question, CCOC(=O)C1=CC[C@@H](c2ccccc2)N(S(=O)(=O)c2ccc(C)cc2)[C@H]1C=C(C)C this time
**Result** 0.246

**Query** Same question, COC(=O)[C@@]1(Cc2ccc(F)cc2)[C@@H]2[C@@H](CC(=O)[C@H]2CC(=O)C(=O)N2CCCC2)CN1C(=O)c1ccccc1 this time
**Result** 1.4

**Query** Same question, C[N+](C)(C)CCCCCCNC(=O)[C@H]1C[C@H]2C(=O)N3CCC[C@H]3C(=O)N2[C@H]1c1cccc(OCCO)c1 this time
**Result** -0.0112

**Query** Same question, COC(=O)C(CC#Cc1ccc2c(c1)[C@]1(C(=O)N2)[C@H](C(=O)N2CCc3cc(OC)c(OC)cc3C2)[C@H]2C(=O)O[C@H](c3ccccc3)[C@H](c3ccccc3)N2[C@@H]1c1ccc(OCCO)cc1)C(=O)OC this time
**Result** 0.246

**Query** Same question, C[C@H]1ON(c2ccccc2)[C@@H](c2ccccc2)[C@@H]1C(=O)N1C(=O)OC[C@@H]1c1ccccc1 this time
**Result** -0.0403
